Recorded kon, one value per entry.
- Test Target: T1, IL-12 p40 C177S variant (human, UniProt P29460 23-328)
- T1 sequence: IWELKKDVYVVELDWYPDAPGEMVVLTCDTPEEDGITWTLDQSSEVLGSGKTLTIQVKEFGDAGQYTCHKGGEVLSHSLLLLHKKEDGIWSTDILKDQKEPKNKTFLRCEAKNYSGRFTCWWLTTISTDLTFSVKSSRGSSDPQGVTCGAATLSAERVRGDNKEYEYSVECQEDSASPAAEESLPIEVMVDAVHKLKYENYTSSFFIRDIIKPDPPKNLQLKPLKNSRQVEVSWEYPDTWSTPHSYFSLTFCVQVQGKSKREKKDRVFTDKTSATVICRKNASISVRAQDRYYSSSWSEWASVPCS
- Protocol Details: BLI (Octet), p35 C74 variant against p40 C177S
Form entry: value (M⁻¹ s⁻¹) — number only.

INSERT INTO assay_data (binder, recorded_value) VALUES
  ('IL-12 p35 C74Y variant (other) RNLPVATPDPGMFPCLHHSQNLLRAVSNMLQKARQTLEFYPCTSEEIDHEDITKDKTSTVEACLPLELTKNESYLNSRETSFITNGSCLASRKTSFMMALCLSSIYEDLKMYQVEFKTMNAKLLMDPKRQIFLDQNMLAVIDELMQALNFNSETVPQKSSLEEPDFYKTKIKLCILLHAFRIRAVTIDRVMSYLNAS', 17700),
  ('IL-12 p35 C74W variant (other) RNLPVATPDPGMFPCLHHSQNLLRAVSNMLQKARQTLEFYPCTSEEIDHEDITKDKTSTVEACLPLELTKNESWLNSRETSFITNGSCLASRKTSFMMALCLSSIYEDLKMYQVEFKTMNAKLLMDPKRQIFLDQNMLAVIDELMQALNFNSETVPQKSSLEEPDFYKTKIKLCILLHAFRIRAVTIDRVMSYLNAS', 16000);

With those in mind, consider the next binder.
Data request, read-out kon, for IL-12 p35 C74D variant (other) RNLPVATPDPGMFPCLHHSQNLLRAVSNMLQKARQTLEFYPCTSEEIDHEDITKDKTSTVEACLPLELTKNESDLNSRETSFITNGSCLASRKTSFMMALCLSSIYEDLKMYQVEFKTMNAKLLMDPKRQIFLDQNMLAVIDELMQALNFNSETVPQKSSLEEPDFYKTKIKLCILLHAFRIRAVTIDRVMSYLNAS
17600
